I'd be grateful if you could share measured IC50 for these entries.
Target: PI3K p110α (Homo sapiens)
Sequence (P42336 whole entry): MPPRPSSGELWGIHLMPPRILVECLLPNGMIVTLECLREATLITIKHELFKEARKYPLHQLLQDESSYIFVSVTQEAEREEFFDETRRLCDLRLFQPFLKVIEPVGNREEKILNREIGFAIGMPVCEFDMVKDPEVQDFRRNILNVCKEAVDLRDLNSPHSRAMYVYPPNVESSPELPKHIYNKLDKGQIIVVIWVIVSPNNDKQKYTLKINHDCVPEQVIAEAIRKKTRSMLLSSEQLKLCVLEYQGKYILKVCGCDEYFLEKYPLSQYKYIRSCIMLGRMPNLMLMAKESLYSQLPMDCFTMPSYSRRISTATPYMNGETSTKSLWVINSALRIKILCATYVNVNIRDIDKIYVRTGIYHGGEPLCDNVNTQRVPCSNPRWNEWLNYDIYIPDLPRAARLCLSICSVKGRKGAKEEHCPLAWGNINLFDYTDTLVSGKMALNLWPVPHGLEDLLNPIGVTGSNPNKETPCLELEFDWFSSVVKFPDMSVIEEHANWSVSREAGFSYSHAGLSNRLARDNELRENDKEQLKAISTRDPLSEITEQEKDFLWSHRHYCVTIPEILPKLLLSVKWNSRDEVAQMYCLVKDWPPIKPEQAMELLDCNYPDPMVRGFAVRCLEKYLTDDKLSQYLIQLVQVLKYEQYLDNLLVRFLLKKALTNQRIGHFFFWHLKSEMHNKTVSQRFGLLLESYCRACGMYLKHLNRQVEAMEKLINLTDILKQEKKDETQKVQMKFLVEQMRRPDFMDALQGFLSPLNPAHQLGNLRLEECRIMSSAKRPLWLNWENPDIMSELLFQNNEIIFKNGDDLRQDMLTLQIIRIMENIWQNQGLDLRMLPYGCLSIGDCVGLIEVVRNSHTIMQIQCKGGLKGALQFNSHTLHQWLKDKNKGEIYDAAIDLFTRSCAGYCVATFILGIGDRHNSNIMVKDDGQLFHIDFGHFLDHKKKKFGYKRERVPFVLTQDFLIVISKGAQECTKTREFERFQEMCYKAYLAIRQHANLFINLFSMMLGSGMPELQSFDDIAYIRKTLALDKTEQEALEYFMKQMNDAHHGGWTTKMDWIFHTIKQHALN
Sequence (P27986 whole entry partner): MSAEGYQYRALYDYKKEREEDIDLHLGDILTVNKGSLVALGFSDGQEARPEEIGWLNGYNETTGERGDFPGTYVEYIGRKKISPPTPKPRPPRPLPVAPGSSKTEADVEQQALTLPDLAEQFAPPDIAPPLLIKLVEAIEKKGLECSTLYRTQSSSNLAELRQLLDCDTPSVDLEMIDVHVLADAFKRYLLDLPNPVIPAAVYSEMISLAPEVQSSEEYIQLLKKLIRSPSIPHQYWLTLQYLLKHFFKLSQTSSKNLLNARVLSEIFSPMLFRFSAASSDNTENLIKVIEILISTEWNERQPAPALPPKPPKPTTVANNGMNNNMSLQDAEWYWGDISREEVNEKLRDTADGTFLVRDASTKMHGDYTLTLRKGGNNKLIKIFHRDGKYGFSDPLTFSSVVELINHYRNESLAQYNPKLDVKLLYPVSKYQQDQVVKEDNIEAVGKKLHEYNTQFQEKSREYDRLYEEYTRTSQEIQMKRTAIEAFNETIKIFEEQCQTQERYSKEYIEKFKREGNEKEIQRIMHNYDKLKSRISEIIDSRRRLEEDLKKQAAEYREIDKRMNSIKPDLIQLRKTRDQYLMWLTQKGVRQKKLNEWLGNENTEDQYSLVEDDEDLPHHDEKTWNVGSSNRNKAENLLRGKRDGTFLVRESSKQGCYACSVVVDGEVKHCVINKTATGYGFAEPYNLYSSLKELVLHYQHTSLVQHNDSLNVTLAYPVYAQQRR
One number for each entry, in nM.

Cc1cccc2nc([C@@H](Nc3ncnc4nc[nH]c34)C3CC3)n(-c3ccccc3)c(=O)c12
134

// switching to the query molecule
Specify IC50 for `O=c1c2c(F)cccc2nc([C@@H](Nc2ncnc3nc[nH]c23)C2CC2)n1-c1ccccc1` , system PI3K p110α (Homo sapiens).
206

----------
Here's a batch of molecules along with measured IC50 for UniProtKB O00329.
Sequence (O00329 whole entry, one chain of several): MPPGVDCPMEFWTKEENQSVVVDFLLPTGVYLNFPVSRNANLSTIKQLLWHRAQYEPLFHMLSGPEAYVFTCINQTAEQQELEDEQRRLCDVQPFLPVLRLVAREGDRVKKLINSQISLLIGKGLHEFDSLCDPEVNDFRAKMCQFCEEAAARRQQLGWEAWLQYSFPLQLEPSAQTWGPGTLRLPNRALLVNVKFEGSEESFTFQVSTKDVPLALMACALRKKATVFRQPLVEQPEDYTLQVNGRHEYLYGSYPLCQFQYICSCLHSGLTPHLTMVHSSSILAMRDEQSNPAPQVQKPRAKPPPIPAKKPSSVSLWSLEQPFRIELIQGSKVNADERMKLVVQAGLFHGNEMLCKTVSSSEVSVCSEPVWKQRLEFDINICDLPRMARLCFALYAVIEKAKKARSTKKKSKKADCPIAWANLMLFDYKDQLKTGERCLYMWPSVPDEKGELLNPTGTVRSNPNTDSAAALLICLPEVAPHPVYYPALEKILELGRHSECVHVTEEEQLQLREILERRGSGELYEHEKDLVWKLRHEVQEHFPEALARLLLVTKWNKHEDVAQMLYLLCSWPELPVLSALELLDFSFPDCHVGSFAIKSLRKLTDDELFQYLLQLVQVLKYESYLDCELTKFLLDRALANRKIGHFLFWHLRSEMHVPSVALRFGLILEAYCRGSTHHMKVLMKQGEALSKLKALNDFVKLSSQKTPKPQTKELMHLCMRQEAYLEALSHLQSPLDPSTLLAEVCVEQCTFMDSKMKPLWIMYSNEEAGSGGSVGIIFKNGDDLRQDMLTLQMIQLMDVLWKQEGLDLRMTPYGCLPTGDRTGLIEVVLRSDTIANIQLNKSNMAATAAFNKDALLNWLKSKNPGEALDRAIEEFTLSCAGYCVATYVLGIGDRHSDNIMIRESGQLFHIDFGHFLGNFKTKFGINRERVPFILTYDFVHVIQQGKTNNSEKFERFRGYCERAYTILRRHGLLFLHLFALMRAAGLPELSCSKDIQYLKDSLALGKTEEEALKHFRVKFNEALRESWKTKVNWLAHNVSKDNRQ
One number for each entry, in pM.

Cc1cccc2nc([C@@H](Nc3ncnc4nc[nH]c34)C3CC3)n(-c3ccccc3)c(=O)c12
90

Return the recorded IC50 value; entry: `O=c1c2c(F)cccc2nc([C@@H](Nc2ncnc3nc[nH]c23)C2CC2)n1-c1ccccc1`
500

----------
Here's a batch of compounds along with measured pIC50 for PI3K p110γ (Homo sapiens, UniProt P48736).
Give bare numbers, as −log10 of the molar value.

Cc1cccc2nc([C@@H](Nc3ncnc4nc[nH]c34)C3CC3)n(-c3ccccc3)c(=O)c12
8.07

Return the recorded pIC50 value; entry: `O=c1c2c(F)cccc2nc([C@@H](Nc2ncnc3nc[nH]c23)C2CC2)n1-c1ccccc1`
7.59
